Source: patent US20220153732A1

IC50 for assorted molecules
tested on: IL-2-FL/Gaussia Luciferase; assay: Dox Induced IL2-FL-Gluc Assay; assay type: cell-based; conditions: 24 hr, doxycycline-induced, 293FRT/TO cells; read-out: 24 hr Dox Inducible IL2FLGIuc 293FRT/TO: Mean IC50
// return numeric value only (unit: µM, not printed)

Example results:
O=C(Nc1ncc(Cl)s1)c1cccn1Cc1ccncc1    6.29
O=C(Nc1nc([C@H]2CC[C@@H]2c2ccccc2)cs1)c1cccn1Cc1ccncc1    0.178

Recall the reported IC50 of CC(C)(OCc1ccc(N=[N+]=[N-])cc1)c1csc(NC(=O)c2cccn2Cc2ccncc2C#N)n1 when tested on IL-2-FL/Gaussia Luciferase.
2.37

Recall the reported IC50 of O=C(Nc1nc([C@@H]2COCCN2c2ccccc2)cs1)c1cccn1Cc1ccncc1 when tested on IL-2-FL/Gaussia Luciferase.
0.379

====

System: HER3-ss+4aa/Gaussia Luciferase
Assay: Dox-Induced Her3-ss-Gluc Assay
Assay type: cell-based
Details: 24 hr doxycycline induction, 293FRT/TO cells, Gaussia luciferase signal; read-out: 24 hr Dox Inducible Her3(ss + 4)Gluc 293FRT/TO: Mean IC50
Method: Transfected cells were selected for resistance to the selectable markers Hygromycin and Blasticidin to create a stable cell line that contained the HER3-ss+4aa/Gaussia Luciferase cDNA insert whose expression was regulated under the T-REx™ system. The day before assay, cells were trypsinized and plated in 384-well tissue culture plates. The next day, compound dilutions in DMSO/media containing doxycycline were added to the wells and incubated at 37° C., 5% CO2. […]
measured-attribute: IC50 (µM)
// return numeric value only (unit: µM, not printed)

O=C(Nc1nc(C2=CCN(Cc3ccccc3)CC2)cs1)c1cccn1Cc1ccncc1    7.11
CCc1cnc(NC(=O)c2cccn2Cc2ccncc2)s1    4.13

Recall the reported IC50 of O=C(Nc1nc(/C=C/C2=CCCCC2)cs1)c1cccn1Cc1ccncc1 when tested on HER3-ss+4aa/Gaussia Luciferase.
0.225

Recall the reported IC50 of O=C(Nc1nc(C2CC(c3ccccc3)C2)cs1)c1cccn1CCCc1ccncc1 (centres unmarked) when tested on HER3-ss+4aa/Gaussia Luciferase.
0.181

Recall the reported IC50 of CC(C)Oc1ccc(/C=C/c2csc(NC(=O)c3cccn3Cc3ccncc3)n2)cc1 when tested on HER3-ss+4aa/Gaussia Luciferase.
0.535

Recall the reported IC50 of O=C(Nc1nc([C@@H]2CCN(c3ccccc3)C2)cs1)c1cccn1Cc1ccncc1 when tested on HER3-ss+4aa/Gaussia Luciferase.
0.512

Recall the reported IC50 of O=C(Nc1nc(/C=C/c2ccc3c(n2)OCO3)cs1)c1cccn1Cc1ccncc1 when tested on HER3-ss+4aa/Gaussia Luciferase.
1.72

Recall the reported IC50 of O=C(Nc1nc([C@H]2CCC[C@@H](c3ccccc3)C2)cs1)c1cccn1Cc1ccncc1 when tested on HER3-ss+4aa/Gaussia Luciferase.
0.463

Recall the reported IC50 of CC(C)Cc1cnc(NC(=O)c2cccn2Cc2ccncc2)s1 when tested on HER3-ss+4aa/Gaussia Luciferase.
4.2

Recall the reported IC50 of Cc1sc(NC(=O)c2cccn2Cc2ccncc2)nc1C1CC1 when tested on HER3-ss+4aa/Gaussia Luciferase.
2.21

Recall the reported IC50 of Cc1nc(NC(=O)c2cccn2Cc2ccncc2)sc1F when tested on HER3-ss+4aa/Gaussia Luciferase.
2.18

Recall the reported IC50 of CC(C)OC(C)(C)c1csc(NC(=O)c2cccn2C(C)c2ccncc2)n1 (centres unmarked) when tested on HER3-ss+4aa/Gaussia Luciferase.
3.41

Recall the reported IC50 of O=C(Nc1nc(C2CCC2)cs1)c1cccn1Cc1ccncc1 when tested on HER3-ss+4aa/Gaussia Luciferase.
1.63

Recall the reported IC50 of CC(C)(OC1CCCCC1)c1csc(NC(=O)c2cccn2Cc2ccncc2)n1 when tested on HER3-ss+4aa/Gaussia Luciferase.
0.195

Recall the reported IC50 of O=C(Nc1nc(CCc2ccc(Cl)cc2)cs1)c1cccn1Cc1ccncc1 when tested on HER3-ss+4aa/Gaussia Luciferase.
0.156

Recall the reported IC50 of O=C(Nc1nc(C2Cc3ccccc3C2)cs1)c1cccn1CCCc1ccncc1 when tested on HER3-ss+4aa/Gaussia Luciferase.
1.24

Recall the reported IC50 of O=C(Nc1nc(/C=C/c2ccccn2)cs1)c1cccn1Cc1ccncc1 when tested on HER3-ss+4aa/Gaussia Luciferase.
8.4

Recall the reported IC50 of O=C(Nc1nc(/C=C/c2ccc(N3CCCCC3)cc2)cs1)c1cccn1Cc1ccncc1 when tested on HER3-ss+4aa/Gaussia Luciferase.
0.304

====

System: HER3-ss+4aa/Gaussia Luciferase
Assay: Dox-Induced Her3-ss-Gluc Assay
Assay type: cell-based
Conditions: read-out: 24 hr Dox Inducible Her3(ss + 4)Gluc 293FRT/TO: Mean IC50; 24 hr, doxycycline-induced, 293FRT/TO cells
Description: Transfected cells were selected for resistance to the selectable markers Hygromycin and Blasticidin to create a stable cell line that contained the HER3-ss+4aa/Gaussia Luciferase cDNA insert whose expression was regulated under the T-REx™ system. The day before assay, cells were trypsinized and plated in 384-well tissue culture plates. The next day, compound dilutions in DMSO/media containing doxycycline were added to the wells and incubated at 37° C., 5% CO2. […]
measured-attribute: IC50 (nM)
// return numeric value only (unit: nM, not printed)

Example results:
CC(C)(C)[Si](O[C@@H]1CCN(c2ccccc2)[C@@H]1c1csc(NC(=O)c2cccn2Cc2ccncc2)n1)(c1ccccc1)c1ccccc1 [Compound A352]    19
CC(C)(C)[Si](O[C@@H]1C[C@H](c2csc(NC(=O)c3cccn3Cc3ccncc3)n2)N(c2ccccc2)C1)(c1ccccc1)c1ccccc1 [Compound A322]    9
O=C(Nc1nc(C2CCC(c3ccccc3)O2)cs1)c1cccn1Cc1ccncc1 (centres unmarked) [Compound A310]    5440

Identify measured IC50 associated with CC(C)(C)[Si](O[C@H]1CCN(c2ccccc2)[C@@H]1c1csc(NC(=O)c2cccn2Cc2ccncc2)n1)(c1ccccc1)c1ccccc1 [Compound A353]
12

Identify measured IC50 associated with CC(C)(C)[Si](O[C@H]1C[C@H](c2csc(NC(=O)c3cccn3Cc3ccncc3)n2)N(c2ccccc2)C1)(c1ccccc1)c1ccccc1 [Compound A323]
13

====

system: IL-2-FL/Gaussia Luciferase; test: Dox Induced IL2-FL-Gluc Assay; format: cell-based; details: 24 hr, doxycycline-induced, 293FRT/TO cells; read-out: 24 hr Dox Inducible IL2FLGIuc 293FRT/TO: Mean IC50
measured-attribute: pIC50
API: returns pIC50 as number; meaning -log10 of concentration in mol/L.

Identify measured pIC50 associated with O=C(Nc1nc(C2CCCN(c3ccccc3)C2)cs1)c1cccn1Cc1ccncc1 (centres unmarked)
6.31

Identify measured pIC50 associated with O=C(Nc1nc(C2CN(c3ccccc3)C2)cs1)c1cccn1Cc1ccncc1
6.12

Identify measured pIC50 associated with CO[C@@H]1CCN(c2ccccc2)C1c1csc(NC(=O)c2cccn2Cc2ccncc2)n1 (some centres unmarked)
7.64

Identify measured pIC50 associated with O=C(Nc1nc([C@H]2CCCN2c2ccc3c(c2)OC(F)(F)O3)cs1)c1cccn1Cc1ccncc1
7.85

Identify measured pIC50 associated with O=C(Nc1nc(C2[C@@H](O)CCN2c2ccccc2)cs1)c1cccn1Cc1ccncc1 (some centres unmarked)
5.87

Identify measured pIC50 associated with CO[C@H]1C[C@H](c2csc(NC(=O)c3cccn3Cc3ccncc3)n2)N(c2ccccc2)C1
7.57

Identify measured pIC50 associated with O=C(Nc1nc(/C=C/c2ccc(F)cn2)cs1)c1cccn1Cc1ccncc1
5.86

Identify measured pIC50 associated with COc1ccc([C@H]2C[C@H]2c2csc(NC(=O)c3cccn3Cc3ccncc3)n2)nc1
5.94

Identify measured pIC50 associated with COc1ccc(O[C@H]2C[C@@H](c3csc(NC(=O)c4cccn4Cc4ccncc4)n3)C2)nc1
6.70

Identify measured pIC50 associated with O=C(Nc1nc([C@H]2CCCN2c2ccccn2)cs1)c1cccn1Cc1ccncc1
7.24

====

pIC50 for assorted compounds
test system: HER3-ss+4aa/Gaussia Luciferase; experiment: Dox-Induced Her3-ss-Gluc Assay; type: cell-based; settings: 24 hr doxycycline induction, 293FRT/TO cells, Gaussia luciferase signal; read-out: 24 hr Dox Inducible Her3(ss + 4)Gluc 293FRT/TO: Mean IC50
API: returns pIC50 as number; meaning -log10 of concentration in mol/L.

Example results:
COc1cccc(CCc2csc(NC(=O)c3cccn3Cc3ccncc3)n2)c1    6.19
O=C(Nc1nc(C2Cc3ccccc3C2)cs1)c1cccn1Cc1ccncc1    6.09
O=C(Nc1nc(/C=C/c2ccc(Cl)cc2)cs1)c1cccn1Cc1ccncc1    6.52

Identify measured pIC50 associated with O=C(Nc1nc(/C=C/c2ccccc2Cl)cs1)c1cccn1Cc1ccncc1
6.28

Identify measured pIC50 associated with CC(C)(CCc1ccccc1)c1csc(NC(=O)c2cccn2Cc2ccncc2)n1
6.25

Identify measured pIC50 associated with Cc1nc(NC(=O)c2cccn2Cc2ccncc2)sc1C
5.45

Identify measured pIC50 associated with O=C(Nc1nc([C@H]2CCCN2Cc2ccccc2)cs1)c1cccn1Cc1ccncc1
5.95

Identify measured pIC50 associated with CC(C)(C)c1csc(NC(=O)c2cccn2Cc2ccncc2)n1
5.78

Identify measured pIC50 associated with CC(C)OC(C)c1csc(NC(=O)c2cccn2Cc2ccncc2)n1 (centres unmarked)
6.12

Identify measured pIC50 associated with O=C(Nc1nc(/C=C/c2ccoc2)cs1)c1cccn1CCCc1ccncc1
4.83

Identify measured pIC50 associated with CC(C)(OCC1CCOCC1)c1csc(NC(=O)c2cccn2Cc2ccncc2)n1
5.81

Identify measured pIC50 associated with O=C(Nc1nc(C#Cc2ccccc2)cs1)c1cccn1Cc1ccncc1
6.38

Identify measured pIC50 associated with O=C(Nc1nc(N2CCN(c3ccccc3)CC2)cs1)c1cccn1Cc1ccncc1
5.05

Identify measured pIC50 associated with CN(C)c1ccc(/C=C/c2csc(NC(=O)c3cccn3Cc3ccncc3)n2)cc1
6.25

Identify measured pIC50 associated with C/C(=C\c1ccccc1)c1csc(NC(=O)c2cccn2Cc2ccncc2)n1
6.42
